# Test system: 463943-066-T-J2-PDC tumor spheroids with HUVEC/MSC, viability
# Protocol: Anticancer human tumor 463943-066-T-J2-PDC patient-derived colon adenocarcinoma cell line growth inhibition [TAK]
# Test Parameters: second compound 0.3 µM; first compound 0.0316 µM; stronger effect = lower value
# Description: Combinatorial screen of targeted agents with TAK-243 and ipatasertib in multi-cell type tumor spheroids […] Compounds. […] If the clinical Cmax for an agent had not been determined, the highest concentration tested was 10 microM. NCI60 Cell Culture. […] The optimal seeding densities for each of the cell lines at each time point assessed were determined prior to performing the concentration response studies. […]
Consider the following molecules; for each one, report its viability, T/C.

I am curious: what viability, T/C value has been reported for CC(C)(C)c1nc(-c2cccc(NS(=O)(=O)c3c(F)cccc3F)c2F)c(-c2ccnc(N)n2)s1 + CC(C)NCC(C(=O)N1CCN(c2ncnc3c2C(C)CC3O)CC1)c1ccc(Cl)cc1 ? 110%

I am curious: what viability, T/C value has been reported for Cc1nc(NC(=O)N2CCCC2C(N)=O)sc1-c1ccnc(C(C)(C)C(F)(F)F)c1 (stereo unspecified) + CC(C)NCC(C(=O)N1CCN(c2ncnc3c2C(C)CC3O)CC1)c1ccc(Cl)cc1 ? 106%

I am curious: what viability, T/C value has been reported for CC(C)n1nc(-c2ccc3oc(N)nc3c2)c2c(N)ncnc21 + CC(C)NCC(C(=O)N1CCN(c2ncnc3c2C(C)CC3O)CC1)c1ccc(Cl)cc1 ? 79.6%

I am curious: what viability, T/C value has been reported for COc1c(OCCCN2CCOCC2)ccc2c3n(c(=NC(=O)c4cnc(N)nc4)nc12)CCN3 + CC(C)NCC(C(=O)N1CCN(c2ncnc3c2C(C)CC3O)CC1)c1ccc(Cl)cc1 ? 85%

I am curious: what viability, T/C value has been reported for CC(C)CC(NC(=O)CNC(=O)c1cc(Cl)ccc1Cl)B1OC(=O)CC(CC(=O)O)(C(=O)O)O1 (stereo unspecified) + CC(C)NCC(C(=O)N1CCN(c2ncnc3c2C(C)CC3O)CC1)c1ccc(Cl)cc1 ? 88.8%

I am curious: what viability, T/C value has been reported for COC1CC2CCC(C)C(O)(O2)C(=O)C(=O)N2CCCCC2C(=O)OC(C(C)CC2CCC(OCCO)C(OC)C2)CC(=O)C(C)C=C(C)C(O)C(OC)C(=O)C(C)CC(C)C=CC=CC=C1C (stereo unspecified) + CC(C)NCC(C(=O)N1CCN(c2ncnc3c2C(C)CC3O)CC1)c1ccc(Cl)cc1 ? 86.5%

---

# Tested on: 463943-066-T-J2-PDC tumor spheroids with HUVEC/MSC, viability
# Protocol: Anticancer human tumor 463943-066-T-J2-PDC cell line growth inhibition [TAK];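 note: spheroids exposed to drugs for seven days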;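 for viability, T/C: 100% = DMSO vehicle control wells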
# Test Parameters: second compound 3 µM; first compound 0.01 µM; stronger effect = lower value
Reported Property: viability, T/C (%)
Record the value in %, omitting the unit from your answer.

I am curious: what viability, T/C value has been reported for CC(C)CC(NC(=O)CNC(=O)c1cc(Cl)ccc1Cl)B1OC(=O)CC(CC(=O)O)(C(=O)O)O1 (stereo not given) + CC(C)NCC(C(=O)N1CCN(c2ncnc3c2C(C)CC3O)CC1)c1ccc(Cl)cc1 ? 98.5

I am curious: what viability, T/C value has been reported for COc1c(OCCCN2CCOCC2)ccc2c3n(c(=NC(=O)c4cnc(N)nc4)nc12)CCN3 + CC(C)NCC(C(=O)N1CCN(c2ncnc3c2C(C)CC3O)CC1)c1ccc(Cl)cc1 ? 86.8

I am curious: what viability, T/C value has been reported for CC(C)CC(NC(=O)C(Cc1ccccc1)NC(=O)c1cnccn1)B(O)O (stereo not given) + CC(C)NCC(C(=O)N1CCN(c2ncnc3c2C(C)CC3O)CC1)c1ccc(Cl)cc1 ? 81.8

I am curious: what viability, T/C value has been reported for COC1CC2CCC(C)C(O)(O2)C(=O)C(=O)N2CCCCC2C(=O)OC(C(C)CC2CCC(OCCO)C(OC)C2)CC(=O)C(C)C=C(C)C(O)C(OC)C(=O)C(C)CC(C)C=CC=CC=C1C (stereo not given) + CC(C)NCC(C(=O)N1CCN(c2ncnc3c2C(C)CC3O)CC1)c1ccc(Cl)cc1 ? 80.3

I am curious: what viability, T/C value has been reported for CC(C)n1nc(-c2ccc3oc(N)nc3c2)c2c(N)ncnc21 + CC(C)NCC(C(=O)N1CCN(c2ncnc3c2C(C)CC3O)CC1)c1ccc(Cl)cc1 ? 89.8

---

Consider the following compounds; for each one, report its pIC50.
# Test system: 463943-066-T-J2-PDC tumor spheroids with HUVEC/MSC, viability
# Protocol: Anticancer human tumor 463943-066-T-J2-PDC cell line growth inhibition [TAK];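 note: spheroids exposed to drugs for seven days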
# Test Parameters: curve of first compound; second compound 0.949 µM
pIC50: −log10 of the molar value.

I am curious: what pIC50 value has been reported for CC(C)(C)c1nc(-c2cccc(NS(=O)(=O)c3c(F)cccc3F)c2F)c(-c2ccnc(N)n2)s1 + CC(C)NCC(C(=O)N1CCN(c2ncnc3c2C(C)CC3O)CC1)c1ccc(Cl)cc1 ? < 5.00

I am curious: what pIC50 value has been reported for CC(C)CC(NC(=O)CNC(=O)c1cc(Cl)ccc1Cl)B1OC(=O)CC(CC(=O)O)(C(=O)O)O1 (stereo not given) + CC(C)NCC(C(=O)N1CCN(c2ncnc3c2C(C)CC3O)CC1)c1ccc(Cl)cc1 ? < 7.00

I am curious: what pIC50 value has been reported for CCCS(=O)(=O)Nc1ccc(F)c(C(=O)c2c[nH]c3ncc(-c4ccc(Cl)cc4)cc23)c1F + CC(C)NCC(C(=O)N1CCN(c2ncnc3c2C(C)CC3O)CC1)c1ccc(Cl)cc1 ? < 4.00

I am curious: what pIC50 value has been reported for Cn1cnc2c(F)c(Nc3ccc(Br)cc3Cl)c(C(=O)NOCCO)cc21 + CC(C)NCC(C(=O)N1CCN(c2ncnc3c2C(C)CC3O)CC1)c1ccc(Cl)cc1 ? < 5.52

I am curious: what pIC50 value has been reported for COc1c(OCCCN2CCOCC2)ccc2c3n(c(=NC(=O)c4cnc(N)nc4)nc12)CCN3 + CC(C)NCC(C(=O)N1CCN(c2ncnc3c2C(C)CC3O)CC1)c1ccc(Cl)cc1 ? < 6.00

---

Consider the following compounds; for each one, report its viability, T/C.
# Tested on: 463943-066-T-J2-PDC tumor spheroids with HUVEC/MSC, viability
# Protocol: Anticancer human tumor 463943-066-T-J2-PDC cell line growth inhibition [TAK];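 note: spheroids exposed to drugs for seven days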;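 for viability, T/C: 100% = DMSO vehicle control wells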
# Test Parameters: second compound 9.49 µM; first compound 1 µM; stronger effect = lower value
# Experimental: Combinatorial screen of targeted agents with TAK-243 and ipatasertib in multi-cell type tumor spheroids […] Compounds. […] If the clinical Cmax for an agent had not been determined, the highest concentration tested was 10 microM. NCI60 Cell Culture. […] The optimal seeding densities for each of the cell lines at each time point assessed were determined prior to performing the concentration response studies. […]
Record the value in %, omitting the unit from your answer.

I am curious: what viability, T/C value has been reported for CCCS(=O)(=O)Nc1ccc(F)c(C(=O)c2c[nH]c3ncc(-c4ccc(Cl)cc4)cc23)c1F + CC(C)NCC(C(=O)N1CCN(c2ncnc3c2C(C)CC3O)CC1)c1ccc(Cl)cc1 ? 109

I am curious: what viability, T/C value has been reported for CC(C)(C)c1nc(-c2cccc(NS(=O)(=O)c3c(F)cccc3F)c2F)c(-c2ccnc(N)n2)s1 + CC(C)NCC(C(=O)N1CCN(c2ncnc3c2C(C)CC3O)CC1)c1ccc(Cl)cc1 ? 109

I am curious: what viability, T/C value has been reported for COc1c(OCCCN2CCOCC2)ccc2c3n(c(=NC(=O)c4cnc(N)nc4)nc12)CCN3 + CC(C)NCC(C(=O)N1CCN(c2ncnc3c2C(C)CC3O)CC1)c1ccc(Cl)cc1 ? 71.2

I am curious: what viability, T/C value has been reported for Cc1nc(NC(=O)N2CCCC2C(N)=O)sc1-c1ccnc(C(C)(C)C(F)(F)F)c1 (centres undefined) + CC(C)NCC(C(=O)N1CCN(c2ncnc3c2C(C)CC3O)CC1)c1ccc(Cl)cc1 ? 86.9

---

# System: 463943-066-T-J2-PDC tumor spheroids with HUVEC/MSC, viability
# Protocol: Anticancer human tumor 463943-066-T-J2-PDC cell line growth inhibition [TAK];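 note: spheroids exposed to drugs for seven days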
# Test Parameters: curve of first compound; second compound 9.49 µM
pIC50: −log10 of the molar value.
Reported Property: pIC50

I am curious: what pIC50 value has been reported for CC(C)n1nc(-c2ccc3oc(N)nc3c2)c2c(N)ncnc21 + CC(C)NCC(C(=O)N1CCN(c2ncnc3c2C(C)CC3O)CC1)c1ccc(Cl)cc1 ? < 7.00

I am curious: what pIC50 value has been reported for CC(C)CC(NC(=O)C(Cc1ccccc1)NC(=O)c1cnccn1)B(O)O (stereo not given) + CC(C)NCC(C(=O)N1CCN(c2ncnc3c2C(C)CC3O)CC1)c1ccc(Cl)cc1 ? < 8.00

I am curious: what pIC50 value has been reported for CC(C)CC(NC(=O)CNC(=O)c1cc(Cl)ccc1Cl)B1OC(=O)CC(CC(=O)O)(C(=O)O)O1 (stereo not given) + CC(C)NCC(C(=O)N1CCN(c2ncnc3c2C(C)CC3O)CC1)c1ccc(Cl)cc1 ? < 7.00

I am curious: what pIC50 value has been reported for CC(C)(C)c1nc(-c2cccc(NS(=O)(=O)c3c(F)cccc3F)c2F)c(-c2ccnc(N)n2)s1 + CC(C)NCC(C(=O)N1CCN(c2ncnc3c2C(C)CC3O)CC1)c1ccc(Cl)cc1 ? < 5.00

I am curious: what pIC50 value has been reported for COc1c(OCCCN2CCOCC2)ccc2c3n(c(=NC(=O)c4cnc(N)nc4)nc12)CCN3 + CC(C)NCC(C(=O)N1CCN(c2ncnc3c2C(C)CC3O)CC1)c1ccc(Cl)cc1 ? < 6.00

I am curious: what pIC50 value has been reported for Cc1nc(NC(=O)N2CCCC2C(N)=O)sc1-c1ccnc(C(C)(C)C(F)(F)F)c1 (stereo not given) + CC(C)NCC(C(=O)N1CCN(c2ncnc3c2C(C)CC3O)CC1)c1ccc(Cl)cc1 ? < 5.00

I am curious: what pIC50 value has been reported for Cn1cnc2c(F)c(Nc3ccc(Br)cc3Cl)c(C(=O)NOCCO)cc21 + CC(C)NCC(C(=O)N1CCN(c2ncnc3c2C(C)CC3O)CC1)c1ccc(Cl)cc1 ? < 5.52

I am curious: what pIC50 value has been reported for CC(=O)Nc1cccc(-n2c(=O)n(C3CC3)c(=O)c3c(Nc4ccc(I)cc4F)n(C)c(=O)c(C)c32)c1 + CC(C)NCC(C(=O)N1CCN(c2ncnc3c2C(C)CC3O)CC1)c1ccc(Cl)cc1 ? < 7.52

I am curious: what pIC50 value has been reported for CCCS(=O)(=O)Nc1ccc(F)c(C(=O)c2c[nH]c3ncc(-c4ccc(Cl)cc4)cc23)c1F + CC(C)NCC(C(=O)N1CCN(c2ncnc3c2C(C)CC3O)CC1)c1ccc(Cl)cc1 ? < 4.00

I am curious: what pIC50 value has been reported for COC1CC2CCC(C)C(O)(O2)C(=O)C(=O)N2CCCCC2C(=O)OC(C(C)CC2CCC(OCCO)C(OC)C2)CC(=O)C(C)C=C(C)C(O)C(OC)C(=O)C(C)CC(C)C=CC=CC=C1C (stereo not given) + CC(C)NCC(C(=O)N1CCN(c2ncnc3c2C(C)CC3O)CC1)c1ccc(Cl)cc1 ? < 7.00
